# Method notes: Lipophilicity: partition coefficient (octanol-buffer) and capacity factor by RP-HPLC
# Format: physicochemical
# Settings: rp-hplc; reverse phase HPLC, 22°C; read-out: Capacity factor (22°C) k' (converted)
# Source text: The lipophilicity of the compounds were studied by determining the partition coefficients (P) of the compounds at a pH of 7.40. […] The partition coefficients of the very lipophilic compounds were, however, determined by reverse phase (RP) liquid chromatography (HPLC) from the retention time (Beckmann 116 pump and 166 UV detector; Marathon autom. sample feeder). […]
Observed property: chromatographic logP

Guide cases for chromatographic logP, answers given:
>  <Compound>
CCCC(=O)OC[C@H](Cc1cncn1C)[C@H](CC)C(=O)OCc1ccc(COC(=O)[C@@H](CC)[C@H](COC(=O)CCC)Cc2cncn2C)cc1

>  <Measured>
0.603

$$$$
>  <Compound>
CC[C@H](C(=O)OCCCCCOC(=O)[C@@H](CC)[C@H](CO)Cc1cncn1C)[C@H](CO)Cc1cncn1C

>  <Measured>
-0.123

$$$$
>  <Compound>
CC[C@H](C(=O)OCc1ccccc1)[C@H](COC(=O)CCCCC(=O)OC[C@H](Cc1cncn1C)[C@H](CC)C(=O)OCc1ccccc1)Cc1cncn1C [Example 15, O,O'-Adipoyl (dibenzyl) bispilocarpate]

>  <Measured>
0.651

$$$$
>  <Compound>
CC[C@H](C(=O)OCc1cccc(COC(=O)[C@@H](CC)[C@H](CO)Cc2cncn2C)c1)[C@H](CO)Cc1cncn1C

>  <Measured>
-0.0814

$$$$
>  <Compound>
CC[C@@H]1C(=O)OC[C@@H]1Cc1cncn1C

>  <Measured>
-0.392

$$$$
>  <Compound>
CC[C@H](C(=O)OCc1ccccc1)[C@H](CO)Cc1cncn1C

>  <Measured>
-0.116

$$$$

chromatographic logP in this record for `CC[C@H](C(=O)OCc1ccc(COC(=O)[C@@H](CC)[C@H](COC(=O)c2ccccc2)Cc2cncn2C)cc1)[C@H](COC(=O)c1ccccc1)Cc1cncn1C` : 0.773

Measured chromatographic logP of CC[C@H](C(=O)OCc1ccccc1)[C@H](COC(=O)/C=C/C(=O)OC[C@H](Cc1cncn1C)[C@H](CC)C(=O)OCc1ccccc1)Cc1cncn1C [Example 18, O,O'-Fumaroyl (dibenzyl) bispilocarpate] : 0.631

---

# Method notes: Corneal permeability in a diffusion chamber
# Format: in vitro ADME, rabbit
# Settings: rabbit
Observed property: Papp (×10⁻⁶ cm/s)
Supply the numeric figure in ×10⁻⁶ cm/s, leaving out any unit text.

Looking up `CC[C@H](C(=O)OCc1ccc(COC(=O)[C@@H](CC)[C@H](COC(C)=O)Cc2cncn2C)cc1)[C@H](COC(C)=O)Cc1cncn1C` , I found its Papp recorded as 9.3

---

Listed next: entries and their corresponding half-life.
# Method notes: Stability of the compounds: buffer hydrolysis (half-times, shelf-life)
# Format: physicochemical
# Settings: buffer pH 9.00, ionic strength 0.5, 37°C; read-out: Half-times in buffers at 37°C, T½, pH 9.00 (converted)
State the answer as a number, implicitly in h.

>  <Molecule>
CC[C@H](C(=O)OCc1ccc(COC(=O)[C@@H](CC)[C@H](COC(=O)c2ccccc2)Cc2cncn2C)cc1)[C@H](COC(=O)c1ccccc1)Cc1cncn1C

>  <Unit symbol>
h

>  <Measured>
8

$$$$
>  <Molecule>
CC[C@H](C(=O)OCc1ccc(COC(=O)[C@@H](CC)[C@H](COC(=O)C2CC2)Cc2cncn2C)cc1)[C@H](COC(=O)C1CC1)Cc1cncn1C

>  <Unit symbol>
h

>  <Measured>
339

$$$$
>  <Molecule>
CCC(=O)OC[C@H](Cc1cncn1C)[C@H](CC)C(=O)OCc1ccccc1 [propionyl, benzyl, reference compound]

>  <Unit symbol>
h

>  <Measured>
94

$$$$

Note: attention shifts to another entry.
Item: `CCCC(=O)OC[C@H](Cc1cncn1C)[C@H](CC)C(=O)OCc1ccc(COC(=O)[C@@H](CC)[C@H](COC(=O)CCC)Cc2cncn2C)cc1` | half-life: 137

---

# Method notes: pKa-value determination by titration in a water-ethanol mixture (50%-50%)
# Assay type: physicochemical
# Settings: water-ethanol 50:50; titration in water-ethanol mixture (50%-50%)
Observed property: pKa
A bare number is all that is needed in reply.

Worked examples follow.
>  <Molecule>
CC[C@H](C(=O)OCc1ccccc1)[C@H](COC(=O)CCCC(=O)OC[C@H](Cc1cncn1C)[C@H](CC)C(=O)OCc1ccccc1)Cc1cncn1C [Example 16, O,O'-Glutaryl (dibenzyl) bispilocarpate]

>  <pKa>
6

$$$$
>  <Molecule>
CC[C@H](C(=O)OCCCCCOC(=O)[C@@H](CC)[C@H](CO)Cc1cncn1C)[C@H](CO)Cc1cncn1C [Example 6]

>  <pKa>
6.3

$$$$
>  <Molecule>
CC[C@H](C(=O)OCc1ccc(COC(=O)[C@@H](CC)[C@H](CO)Cc2cncn2C)cc1)[C@H](CO)Cc1cncn1C [Example 1]

>  <pKa>
6.25

$$$$
>  <Molecule>
CC[C@H](C(=O)OCCCCCCOC(=O)[C@@H](CC)[C@H](CO)Cc1cncn1C)[C@H](CO)Cc1cncn1C [Example 5]

>  <pKa>
6.3

$$$$

The molecule identified as CC[C@H](C(=O)OCc1cccc(COC(=O)[C@@H](CC)[C@H](CO)Cc2cncn2C)c1)[C@H](CO)Cc1cncn1C [Example 2] registered its pKa at 6.3

Sample CC[C@H](C(=O)OCc1ccccc1COC(=O)[C@@H](CC)[C@H](CO)Cc1cncn1C)[C@H](CO)Cc1cncn1C [Example 3] ; pKa observed: 6.3

---

Each record here notes measured pKa.
# Method notes: pKa-value determination by titration in a water-ethanol mixture (50%-50%)
# Assay type: physicochemical
# Settings: water-ethanol 50:50; titration in water-ethanol mixture (50%-50%)

Use the examples below as a reference point.
>  <Molecule>
CC[C@H](C(=O)OCc1ccccc1)[C@H](COC(=O)/C=C/C(=O)OC[C@H](Cc1cncn1C)[C@H](CC)C(=O)OCc1ccccc1)Cc1cncn1C [Example 18, O,O'-Fumaroyl (dibenzyl) bispilocarpate]

>  <pKa>
6.05

$$$$
>  <Molecule>
CCCCC(=O)OC[C@H](Cc1cncn1C)[C@H](CC)C(=O)OCc1ccc(COC(=O)[C@@H](CC)[C@H](COC(=O)CCCC)Cc2cncn2C)cc1 [Example 12]

>  <pKa>
6

$$$$
>  <Molecule>
CCCC(=O)OC[C@H](Cc1cncn1C)[C@H](CC)C(=O)OCc1ccc(COC(=O)[C@@H](CC)[C@H](COC(=O)CCC)Cc2cncn2C)cc1 [Example 11]

>  <pKa>
6

$$$$
>  <Molecule>
CC[C@H](C(=O)OCCCOC(=O)[C@@H](CC)[C@H](CO)Cc1cncn1C)[C@H](CO)Cc1cncn1C [Example 8]

>  <pKa>
6.4

$$$$
>  <Molecule>
CC[C@H](C(=O)OCc1ccccc1)[C@H](COC(=O)CCCCC(=O)OC[C@H](Cc1cncn1C)[C@H](CC)C(=O)OCc1ccccc1)Cc1cncn1C [Example 15, O,O'-Adipoyl (dibenzyl) bispilocarpate]

>  <pKa>
6

$$$$

Given item CC[C@H](C(=O)OCc1ccccc1)[C@H](COC(=O)CCC(=O)OC[C@H](Cc1cncn1C)[C@H](CC)C(=O)OCc1ccccc1)Cc1cncn1C [Example 17, O,O'-Succinyl (dibenzyl) bispilocarpate] , the value recorded as its pKa is 6

CC[C@H](C(=O)OCc1ccccc1)[C@H](CO)Cc1cncn1C [pilocarpic acid benzyl ester] yielded pKa of 6.5

The molecule CC[C@H](C(=O)OCc1ccc(COC(=O)[C@@H](CC)[C@H](COC(=O)c2ccccc2)Cc2cncn2C)cc1)[C@H](COC(=O)c1ccccc1)Cc1cncn1C [Example 14] showed pKa equal to 5.8

Field pKa (entry CC[C@H](C(=O)OCCCCCCOC(=O)[C@@H](CC)[C@H](COC(=O)C1CC1)Cc1cncn1C)[C@H](COC(=O)C1CC1)Cc1cncn1C [Example 20] ) reads 6

---

Some compounds, each annotated with its measured half-life.
# Method notes: Stability of the compounds: buffer hydrolysis (half-times, shelf-life)
# Type: physicochemical
# Settings: pH 4.2; buffer pH 4.20, ionic strength 0.5, 37°C; read-out: Half-times in buffers at 37°C, T½, pH 4.20 (converted)
A number alone suffices; assume days.

Illustrative cases are given below, each with its answer.
>  <Compound>
CC[C@H](C(=O)OCc1ccccc1COC(=O)[C@@H](CC)[C@H](CO)Cc1cncn1C)[C@H](CO)Cc1cncn1C [Example 3]

>  <half-life / days>
0.84

$$$$
>  <Compound>
CC[C@H](C(=O)OCc1ccccc1)[C@H](COC(=O)CCCC(=O)OC[C@H](Cc1cncn1C)[C@H](CC)C(=O)OCc1ccccc1)Cc1cncn1C [Example 16, O,O'-Glutaryl (dibenzyl) bispilocarpate]

>  <half-life / days>
174

$$$$
>  <Compound>
CC[C@H](C(=O)OCc1ccccc1)[C@H](COC(=O)c1ccccc1)Cc1cncn1C [benzoyl, benzyl, reference compound]

>  <half-life / days>
444

$$$$

Now take the following compound into account.
Recorded half-life (compound CC[C@H](C(=O)OCCCCCCOC(=O)[C@@H](CC)[C@H](CO)Cc1cncn1C)[C@H](CO)Cc1cncn1C [Example 5] ): 2.61

Data provenance: patent EP0559700B1
